Taken from ChEMBL document CHEMBL4190327.

procedure_summary: Inhibition of hydrogen potassium ATPase in goat stomach mucosal membrane assessed as decrease in inorganic phosphate production using ATP as substrate after 10 to 15 mins by spectrophotometric analysis
Type: cell membranes, Capra hircus
pKi: −log10 of the molar value.
Documented pKi across a set of compounds

Study these solved cases before continuing.
- smiles_string: "COCCCOc1ccnc(COc2ccc(CS(=O)(=O)c3nc4cc(OC)ccc4[nH]3)cc2OC)c1C"
  pKi: "5.91 to 7.60"
- smiles_string: "COc1cc(CS(=O)(=O)c2nc3cc(OC(F)F)ccc3[nH]2)ccc1OCc1ncc(C)c(OC)c1C"
  pKi: "5.91 to 7.60"
- smiles_string: "COc1cc(CS(=O)(=O)c2nc3ccccc3[nH]2)ccc1OCc1ncc(C)c(OC)c1C"
  pKi: "5.91 to 7.60"
- smiles_string: "COc1cc(CS(=O)(=O)c2nc3ccccc3[nH]2)ccc1OCc1nccc(OC)c1OC"
  pKi: "5.91 to 7.60"
- smiles_string: "COCCCOc1ccnc(COc2ccc(CS(=O)(=O)c3nc4ccccc4[nH]3)cc2OC)c1C"
  pKi: "5.91 to 7.60"
- smiles_string: "COc1cc(CS(=O)(=O)c2nc3ccccc3[nH]2)ccc1OCc1nccc(OCC(F)(F)F)c1C"
  pKi: "5.91 to 7.60"

If you can, please state the reported pKi value of COc1cc(CS(=O)(=O)c2nc3cc(OC(F)F)ccc3[nH]2)ccc1OCc1nccc(OC)c1OC .
5.91 to 7.60

Quick one: pKi for COc1ccc2[nH]c(S(=O)(=O)Cc3ccc(OCc4nccc(OC)c4OC)c(OC)c3)nc2c1 ?
5.91 to 7.60

# query: pKi of entry COc1ccc2[nH]c(S(=O)(=O)Cc3ccc(OCc4ncc(C)c(OC)c4C)c(OC)c3)nc2c1
5.91 to 7.60

Which measured pKi value corresponds to COc1ccc2[nH]c(S(=O)(=O)Cc3ccc(OCc4nccc(OCC(F)(F)F)c4C)c(OC)c3)nc2c1 ?
5.91 to 7.60

What measured pKi goes with COc1cc(CS(=O)(=O)c2nc3cc(OC(F)F)ccc3[nH]2)ccc1OCc1nccc(OCC(F)(F)F)c1C ?
5.91 to 7.60

Dear colleague, I am looking for the recorded pKi of the following compound: COCCCOc1ccnc(COc2ccc(CS(=O)(=O)c3nc4cc(OC(F)F)ccc4[nH]3)cc2OC)c1C
5.91 to 7.60

---

procedure_summary: Inhibition of hydrogen potassium ATPase in goat stomach mucosal membrane assessed as decrease in inorganic phosphate production using ATP as substrate after 10 to 15 mins by spectrophotometric analysis
Type: cell membranes, Capra hircus
Listing of recorded pIC50 by entry.
Notebook: values listed as pIC50 are -log10 of the concentration (mol/L).

// solved cases for pIC50 follow
- smiles_string: "COc1cc(CS(=O)(=O)c2nc3ccccc3[nH]2)ccc1OCc1ncc(C)c(OC)c1C"
  pIC50: 5.77
- smiles_string: "COCCCOc1ccnc(COc2ccc(CS(=O)(=O)c3nc4cc(OC)ccc4[nH]3)cc2OC)c1C"
  pIC50: 6.09
- smiles_string: "COc1cc(CS(=O)(=O)c2nc3cc(OC(F)F)ccc3[nH]2)ccc1OCc1ncc(C)c(OC)c1C"
  pIC50: 5.87

Consider the additional compound presented here.
Quick one: pIC50 for COc1cc(CS(=O)(=O)c2nc3cc(OC(F)F)ccc3[nH]2)ccc1OCc1nccc(OC)c1OC ?
6.70

---

procedure_summary: Inhibition of hydrogen potassium ATPase in goat stomach mucosal membrane assessed as decrease in inorganic phosphate production using ATP as substrate after 10 to 15 mins by spectrophotometric analysis
Format: cell membranes, Capra hircus
pIC50: −log10 of the molar value.
Returns one of True or False; True when pIC50 is >= 6.

Completed entries (count: 3):
- smiles_string: "COCCCOc1ccnc(COc2ccc(CS(=O)(=O)c3nc4cc(OC(F)F)ccc4[nH]3)cc2OC)c1C"
  class_assignment: "True"
- smiles_string: "COCCCOc1ccnc(COc2ccc(CS(=O)(=O)c3nc4ccccc4[nH]3)cc2OC)c1C"
  class_assignment: "True"
- smiles_string: "COc1cc(CS(=O)(=O)c2nc3ccccc3[nH]2)ccc1OCc1nccc(OC)c1OC"
  class_assignment: "True"

Then there is this compound:
Hello, I need to know if COc1cc(CS(=O)(=O)c2nc3cc(OC(F)F)ccc3[nH]2)ccc1OCc1nccc(OCC(F)(F)F)c1C has measured pIC50 not below 6. Thanks!
False

---

# key: entry, value: inhibition
Species: Capra hircus
procedure_summary: Inhibition of hydrogen potassium ATPase in goat stomach mucosal membrane assessed as decrease in inorganic phosphate production using ATP as substrate after 10 to 15 mins by spectrophotometric analysis relative to omeprazole
Type: cell membranes
Parameters: concentration or dose not given beside the values
Number only, in %; omit the unit.

Known results for compounds:
- smiles_string: "COc1ccc2[nH]c(S(=O)(=O)Cc3ccc(OCc4nccc(OCC(F)(F)F)c4C)c(OC)c3)nc2c1"
  data_value: 72
- smiles_string: "COc1cc(CS(=O)(=O)c2nc3ccccc3[nH]2)ccc1OCc1nccc(OCC(F)(F)F)c1C"
  data_value: 74.9

We now examine a further compound.
Reported inhibition, compound COc1cc(CS(=O)(=O)c2nc3ccccc3[nH]2)ccc1OCc1nccc(OC)c1OC : ____
92

---

Known IC50 of a selection of compounds
procedure_summary: Inhibition of hydrogen potassium ATPase in goat stomach mucosal membrane assessed as decrease in inorganic phosphate production using ATP as substrate after 10 to 15 mins by spectrophotometric analysis
Format: cell membranes, Capra hircus
Respond numerically; units are nM and should not be typed.

Would you please look over these solved cases?
- smiles_string: "COc1ccc2[nH]c(S(=O)(=O)Cc3ccc(OCc4nccc(OCC(F)(F)F)c4C)c(OC)c3)nc2c1"
  IC50 / nM: 1460
- smiles_string: "COc1ccc2[nH]c(S(=O)(=O)Cc3ccc(OCc4ncc(C)c(OC)c4C)c(OC)c3)nc2c1"
  IC50 / nM: 1150
- smiles_string: "COc1ccc2[nH]c(S(=O)(=O)Cc3ccc(OCc4nccc(OC)c4OC)c(OC)c3)nc2c1"
  IC50 / nM: 918

Turning now to a further compound:
GET /values?readout=IC50&item= COc1cc(CS(=O)(=O)c2nc3ccccc3[nH]2)ccc1OCc1nccc(OCC(F)(F)F)c1C
1290
